# Tested on: BT-549
# ASSAY_OVERVIEW: normalised viability (% of control), CellTiter-Blue; higher = more viable cells (about 100 = DMSO control)
# APPLIED_CONDITIONS: 1000 nM; incubation time: 72 h
ASSAY_ENDPOINT: normalised viability (%)

COMPOUND | UNIT_ABBREVIATION | READING
O=C1CN2Cc3c(ccc(Cl)c3Cl)N=C2N1 [Anagrelide] | % | 89.1
Nc1ncn([C@@H]2O[C@H](CO)[C@@H](O)[C@H]2O)c(=O)n1 | % | 95.4
Nc1nc2[nH]cnc2c(=S)[nH]1 | % | 106
COc1cc2c(cc1O)CC[C@@H]1[C@@H]2CC[C@]2(C)[C@@H](O)CC[C@@H]12 | % | 51.7
Oc1ncnc2[nH]ncc12 | % | 86.6
COc1cc(F)c(F)c(Nc2ccc(I)cc2F)c1NS(=O)(=O)C1(C[C@H](O)CO)CC1 | % | 87.5
CC1=C2C[C@H]3[C@@H](CC=C4C[C@@H](O)CC[C@@]43C)[C@@H]2CC[C@]12O[C@@H]1C[C@H](C)CN[C@H]1[C@H]2C | % | 87.2
